- System: Salmonella tester strain TA1538
- protocol_conditions: TA1538 − S9; 5 μg/plate
- Protocol: In this example the compounds of the present invention are tested for their dark mutagenicity using an Ames assay. The procedures used for the Salmonella mutagenicity test as described in detail by Maron and Ames were followed exactly. Maron, D. M. and B. N. Ames, Mutation Research 113: 173 ( 1983). A brief description for each procedure is given here. […] For all experiments, the pre-incubation procedure was used. […] After incubation the number of revertant colonies on each plate were counted. […]
recorded_metric: revertant colonies per plate
Kindly provide the number alone.

Cc1oc2c(C)c3oc(=O)cc(C)c3cc2c1COCCCN [Compound 4] :: −2

Recorded revertant colonies per plate of Cc1oc2c(C)c3oc(=O)cc(C)c3cc2c1CCN [Compound 3] , please. 0

Recorded revertant colonies per plate of Cc1oc2c(C)c3oc(=O)cc(C)c3cc2c1CNCCN [Compound 1] , please. 10

Recorded revertant colonies per plate of Cc1oc2c(C)c3oc(=O)cc(C)c3cc2c1COCCN [Compound 2] , please. −8

* * *

In this section, each of the compounds is paired with its reported revertant colonies per plate.
- System: Salmonella tester strain TA100
- protocol_conditions: TA100 − S9; 10 μg/plate
Kindly provide the number alone.

Recorded revertant colonies per plate of Cc1oc2c(C)c3oc(=O)cc(C)c3cc2c1CCN , please. 47

Recorded revertant colonies per plate of Cc1oc2c(C)c3oc(=O)cc(C)c3cc2c1COCCCN , please. 3

Recorded revertant colonies per plate of Cc1oc2c(C)c3oc(=O)cc(C)c3cc2c1CNCCN , please. 337

Recorded revertant colonies per plate of Cc1oc2c(C)c3oc(=O)cc(C)c3cc2c1COCCN , please. 46

* * *

In this section, each of the compounds is paired with its reported revertant colonies per plate.
- System: Salmonella tester strain TA1537
- test: Ames test, strain TA1537
- protocol_conditions: TA1537 − S9; 10 μg/plate
Kindly provide the number alone.

Cc1oc2c(C)c3oc(=O)cc(C)c3cc2c1COCCN :: 36
Nc1c2ccccc2nc2ccccc12 [9-Amino-acridine, reference compound] :: 284
Cc1oc2c(C)c3oc(=O)cc(C)c3cc2c1CN [AMT, 4′-Aminomethyl-4,5′,8-trimethylpsoralen, reference compound] :: 52

Recorded revertant colonies per plate of Cc1cc(=O)oc2c(C)c3oc(COCCN)c(C)c3cc12 , please. 21

* * *

- System: Salmonella tester strain TA1538
- protocol_conditions: TA1538 + S9; 5 μg/plate
recorded_metric: revertant colonies per plate
Kindly provide the number alone.

// worked examples, revertant colonies per plate included
Cc1oc2c(C)c3oc(=O)cc(C)c3cc2c1CNCCN :: 21
Cc1oc2c(C)c3oc(=O)cc(C)c3cc2c1COCCN :: 2
Cc1oc2c(C)c3oc(=O)cc(C)c3cc2c1CCN :: 1

Note: attention shifts to another entry.
Recorded revertant colonies per plate of Cc1oc2c(C)c3oc(=O)cc(C)c3cc2c1COCCCN , please. 7

* * *

- Test system: R17 bacteriophage
- test: R17 bacteriophage inactivation assay, varying compound concentration
- Format: cell-based
- protocol_conditions: 32 μM; starting titer approx. 7.2 logs; 1 minute irradiation (Table 7)
- Procedure: An r-17 bacteriophage assay was used in this example to predict pathogen inactivation efficiency and to determine nucleic acid binding of the photoreactive binding compounds of the present invention. In the r-17 assay, the bacteriophage was placed in a solution with each compound tested and was then irradiated. The ability of the phage to subsequently infect bacteria and inhibit their growth was measured. […]
recorded_metric: R17 Log Kill

// worked examples, R17 Log Kill included
Cc1oc2c(C)c3oc(=O)cc(C)c3cc2c1CN [AMT, 4′-Aminomethyl-4,5′,8-trimethylpsoralen, reference compound] :: >6.2 log
Cc1oc2c(C)c3oc(=O)cc(C)c3cc2c1CCN :: >6.2 log
Cc1oc2c(C)c3oc(=O)cc(C)c3cc2c1CNCCN :: 5.3 log

Note: attention shifts to another entry.
Recorded R17 Log Kill of Cc1oc2c(C)c3oc(=O)cc(C)c3cc2c1COCCN , please. >6.2 log
